These measurements were taken from patent US10227388B2.

# TGT: HLA-A*02:01 (Homo sapiens, UniProt P04439, D140Y/D185E/D98H/E176V/E277Q/G131W/G231S/I119V/I121R/I166T/I218V/L300P/L318F/N151K/N90K/P208A/P217A/Q86G/Q94H/R138H/R169H/T345S)
# PROTOCOL DETAILS: MHC binding assay (UV-ligand exchange, ELISA, peptide exchange yield)
# EXPERIMENTAL PARAMETERS: binding of HLA-class I restricted peptides to HLA-A*02:01
TEST READOUT: Peptide exchange (MHC class I binding score, peptide exchange yield)

{"SUBSTANCE": "316 (ILLERLWYV; listed as Homo sapiens) [compound 316]", "RECORDED VALUE": "″+++″ (≥50% = +++)"}
{"SUBSTANCE": "578 (FLDPGGPMMKL; listed as Homo sapiens) [compound 578]", "RECORDED VALUE": "″+++″ (≥50% = +++)"}
{"SUBSTANCE": "199 (ALQDVPLSSV; listed as Homo sapiens) [compound 199]", "RECORDED VALUE": "″+++″ (≥50% = +++)"}

---

# TGT: HLA-A*02:01 (Homo sapiens, UniProt P04439, D140Y/D185E/D98H/E176V/E277Q/G131W/G231S/I119V/I121R/I166T/I218V/L300P/L318F/N151K/N90K/P208A/P217A/Q86G/Q94H/R138H/R169H/T345S)
# PROTOCOL DETAILS: MHC binding assay (UV-ligand exchange, ELISA, peptide exchange yield)
# EXPERIMENTAL PARAMETERS: binding of HLA-class I restricted peptides to HLA-A*02:01
TEST READOUT: Peptide exchange (MHC class I binding score, peptide exchange yield)

Record excerpt, results attached:
{"SUBSTANCE": "524 (ALIENLTHQI; listed as Homo sapiens) [compound 524]", "RECORDED VALUE": "″++″ (≥20% = ++)"}
{"SUBSTANCE": "178 (ALTEIAFVV; listed as Homo sapiens) [compound 178]", "RECORDED VALUE": "″++++″ (≥75% = ++++)"}
{"SUBSTANCE": "72 (SLLELDGINL; listed as Homo sapiens) [compound 72]", "RECORDED VALUE": "″+++″ (≥50% = +++)"}
{"SUBSTANCE": "493 (GLLGEKTQDLIGV; listed as Homo sapiens) [compound 493]", "RECORDED VALUE": "″+++″ (≥50% = +++)"}
{"SUBSTANCE": "473 (AMATESILHFA; listed as Homo sapiens) [compound 473]", "RECORDED VALUE": "″+++″ (≥50% = +++)"}

For every record below, what is its Peptide exchange (MHC class I binding score, peptide exchange yield)?
1. 273 (NLFQSVREV; listed as Homo sapiens) [compound 273]
2. 347 (SLFKHDPAAWEA; listed as Homo sapiens) [compound 347]
3. 356 (KLLGKLPEL; listed as Homo sapiens) [compound 356]

result:
["″++″ (≥20% = ++)", "″++++″ (≥75% = ++++)", "″+++″ (≥50% = +++)"]

query: Please report Peptide exchange (MHC class I binding score, peptide exchange yield) for the following substance: 602 (YLLEQIKLIEV; listed as Homo sapiens) [compound 602]
result: ″++++″ (≥75% = ++++)

---

# TGT: HLA-A*02:01 (Homo sapiens, UniProt P04439, D140Y/D185E/D98H/E176V/E277Q/G131W/G231S/I119V/I121R/I166T/I218V/L300P/L318F/N151K/N90K/P208A/P217A/Q86G/Q94H/R138H/R169H/T345S)
# PROTOCOL DETAILS: MHC binding assay (UV-ligand exchange, ELISA, peptide exchange yield)
# EXPERIMENTAL PARAMETERS: binding of HLA-class I restricted peptides to HLA-A*02:01
TEST READOUT: Peptide exchange (MHC class I binding score, peptide exchange yield)

{"SUBSTANCE": "97 (SLINGSFLV; listed as Homo sapiens) [compound 97]", "RECORDED VALUE": "″+++″ (≥50% = +++)"}
{"SUBSTANCE": "391 (YVYPQRLNFV; listed as Homo sapiens) [compound 391]", "RECORDED VALUE": "″+++″ (≥50% = +++)"}
{"SUBSTANCE": "447 (QLVPALAKV; listed as Homo sapiens) [compound 447]", "RECORDED VALUE": "″++″ (≥20% = ++)"}
{"SUBSTANCE": "559 (VTVPPGPSL; listed as Homo sapiens) [compound 559]", "RECORDED VALUE": "″++″ (≥20% = ++)"}
{"SUBSTANCE": "350 (ALLDVTHSELTV; listed as Homo sapiens) [compound 350]", "RECORDED VALUE": "″+++″ (≥50% = +++)"}
{"SUBSTANCE": "376 (AMFESSQNVLL; listed as Homo sapiens) [compound 376]", "RECORDED VALUE": "″++″ (≥20% = ++)"}

Parameters: items (list). Returns: Peptide exchange (MHC class I binding score, peptide exchange yield) for each item.
1. 159 (GLVGNPLPSV; listed as Homo sapiens) [compound 159]
2. 206 (VLQEGKLQKLAQL; listed as Homo sapiens) [compound 206]
3. 358 (ALDEYTSEL; listed as Homo sapiens) [compound 358]

result:
["″++++″ (≥75% = ++++)", "″+++″ (≥50% = +++)", "″++++″ (≥75% = ++++)"]

---

# TGT: HLA-A*02:01 (Homo sapiens, UniProt P04439, D140Y/D185E/D98H/E176V/E277Q/G131W/G231S/I119V/I121R/I166T/I218V/L300P/L318F/N151K/N90K/P208A/P217A/Q86G/Q94H/R138H/R169H/T345S)
# PROTOCOL DETAILS: MHC binding assay (UV-ligand exchange, ELISA, peptide exchange yield)
# EXPERIMENTAL PARAMETERS: binding of HLA-class I restricted peptides to HLA-A*02:01
TEST READOUT: Peptide exchange (MHC class I binding score, peptide exchange yield)

Recorded Peptide exchange (MHC class I binding score, peptide exchange yield), per entry:
{"SUBSTANCE": "382 (ALQNYIKEA; listed as Homo sapiens) [compound 382]", "RECORDED VALUE": "″++″ (≥20% = ++)"}
{"SUBSTANCE": "102 (YLFESEGLVL; listed as Homo sapiens) [compound 102]", "RECORDED VALUE": "″+++″ (≥50% = +++)"}
{"SUBSTANCE": "95 (SVIPQIQKV; listed as Homo sapiens) [compound 95]", "RECORDED VALUE": "″+++″ (≥50% = +++)"}
{"SUBSTANCE": "322 (TLMTSLPAL; listed as Homo sapiens) [compound 322]", "RECORDED VALUE": "″+++″ (≥50% = +++)"}
{"SUBSTANCE": "321 (GLFEDVTQPGILL; listed as Homo sapiens) [compound 321]", "RECORDED VALUE": "″++++″ (≥75% = ++++)"}
{"SUBSTANCE": "583 (ILANDGVLLAA; listed as Homo sapiens) [compound 583]", "RECORDED VALUE": "″+++″ (≥50% = +++)"}
{"SUBSTANCE": "449 (KLAEGLDIQL; listed as Homo sapiens) [compound 449]", "RECORDED VALUE": "″+++″ (≥50% = +++)"}
{"SUBSTANCE": "117 (ILPDGEDFLAV; listed as Homo sapiens) [compound 117]", "RECORDED VALUE": "″+++″ (≥50% = +++)"}

For every item in the list below, what is its measured Peptide exchange (MHC class I binding score, peptide exchange yield)?
1. 311 (RLYTGMHTV; listed as Homo sapiens) [compound 311]
2. 30 (LILDWVPYI; listed as Homo sapiens) [compound 30]
3. 264 (SLQEQLHSV; listed as Homo sapiens) [compound 264]
4. 324 (FLYDEIEAEV; listed as Homo sapiens) [compound 324]
5. 49 (YLPAVFEEV; listed as Homo sapiens) [compound 49]
6. 521 (MLLTKLPTI; listed as Homo sapiens) [compound 521]

result:
″+++″ (≥50% = +++)
″+++″ (≥50% = +++)
″+++″ (≥50% = +++)
″+++″ (≥50% = +++)
″+++″ (≥50% = +++)
″+++″ (≥50% = +++)

Please state Peptide exchange (MHC class I binding score, peptide exchange yield) for every substance in the list that follows.
1. 262 (LLWGDLIWL; listed as Homo sapiens) [compound 262]
2. 252 (LLIGTDVSL; listed as Homo sapiens) [compound 252]
3. 27 (ILADIVISA; listed as Homo sapiens) [compound 27]
4. 312 (IISDLTIAL; listed as Homo sapiens) [compound 312]
5. 616 (VLIDEVESL; listed as Homo sapiens) [compound 616]
6. 603 (FLIEPEHVNTV; listed as Homo sapiens) [compound 603]
7. 349 (SLTEYLQNV; listed as Homo sapiens) [compound 349]

result:
1: ″+++″ (≥50% = +++); 2: ″+++″ (≥50% = +++); 3: ″+++″ (≥50% = +++); 4: ″+++″ (≥50% = +++); 5: ″+++″ (≥50% = +++); 6: ″++″ (≥20% = ++); 7: ″++++″ (≥75% = ++++)

Okay, here is my list. What is Peptide exchange (MHC class I binding score, peptide exchange yield) for each of these?
1. 164 (ALLPQPKNLTV; listed as Homo sapiens) [compound 164]
2. 214 (FLLDLDPLLL; listed as Homo sapiens) [compound 214]
3. 13 (YLMDESLNL; listed as Homo sapiens) [compound 13]
4. 497 (GLLEKLTAI; listed as Homo sapiens) [compound 497]

result:
″+++″ (≥50% = +++)
″+++″ (≥50% = +++)
″+++″ (≥50% = +++)
″+++″ (≥50% = +++)

Hi team, please reply with Peptide exchange (MHC class I binding score, peptide exchange yield) for each item in this list.
1. 217 (ALIHPVSTV; listed as Homo sapiens) [compound 217]
2. 570 (ALANQIPTV; listed as Homo sapiens) [compound 570]

result:
1. ″++″ (≥20% = ++)
2. ″++″ (≥20% = ++)

Below are some substances; for each one, tell me its Peptide exchange (MHC class I binding score, peptide exchange yield).
1. 226 (MLYVVPIYL; listed as Homo sapiens) [compound 226]
2. 331 (KVDTVWVNV; listed as Homo sapiens) [compound 331]
3. 584 (ALAEVAAMENV; listed as Homo sapiens) [compound 584]

result:
["″++″ (≥20% = ++)", "″+++″ (≥50% = +++)", "″+++″ (≥50% = +++)"]
